# target_entity: human Nav1.6 (Homo sapiens)
# Construct: host or cells: HEK293
# assay_name: Two pulse assay protocol, Nav1.6
# Type: cell-based
# conditions_used: 5 uM; peak current, pulse 2 (state-dependent); read-out: percent inhibition hNav1.6, Pulse 2 (5 uM)
# Protocol: In vitro Na+ Current Inhibition Assays were performed by Eurofins Discovery (St Charles, MO). All compound functional activity determinations were determined through electrophysiological analyses of Na+ currents in HEK293 cells expressing a stably transfected Na+ channel (human Nav1.1, 1.2, 1.3, 1.5, 1.6, 1.7, or 1.8). […] Two pulse assay protocol for human Nav1.1, 1.2, 1.3, 1.5, 1.6, 1.7, and 1.8 channels. […] Current amplitudes in excess of 200 pA at the control stage were analyzed. […]
measure: inhibition at 5 µM

Known results for compounds:
// inhibition at 5 µM value for CC(C)Oc1ccc(-c2ccc3ncc(-c4ccc(OC(C)(C)C)cc4)n3c2)cc1F [Example C81] : > 90%

// inhibition at 5 µM value for CC(C)Oc1ccc(-c2cnc3ccc(C(F)(F)F)cn23)cc1 [Example C61] : < 50%

// inhibition at 5 µM value for Cc1cc(OC(C)C)ccc1-c1ccc2ncc(-c3ccc(OC(C)C)cc3)n2c1 [Example C18] : 50 to 90%

New cases:
// inhibition at 5 µM value for Cc1cc(-c2ccc(OC(C)C)cc2)cn2c(-c3ccc(OC(C)C)cc3)cnc12 [Example C50] : < 50%

---

# target_entity: human Nav1.7 (Homo sapiens, UniProt Q15858)
# Construct: host or cells: HEK293
# assay_name: Two pulse assay protocol, Nav1.7
# Type: cell-based
# conditions_used: peak current, pulse 1 (tonic), read-out: percent inhibition hNav1.7, Pulse 1 (5 uM)
measure: inhibition at 5 µM

// inhibition at 5 µM value for CS(=O)(=O)NC(=O)c1cc2ncc(-c3ccc(OC(F)(F)F)cc3)n2cc1-c1ccc(OC(F)(F)F)cc1 [Example C67] : < 50%

// inhibition at 5 µM value for CC(C)Oc1ccc(-c2ccc3ncc(-c4ccc(OC(C)(C)C)nc4)n3c2)cc1 [Example C90] : < 50%

// inhibition at 5 µM value for CC(C)Oc1ccc(-c2ccc3ncc(-c4ccc(C(C)C)cc4)n3c2)cc1 [Example C73] : < 50%

Then this molecule:
// inhibition at 5 µM value for CC(C)Oc1ccc(-c2ccc3ncc(-c4ccc(Oc5ccccc5)cc4)n3c2)cc1 [Example C72] : < 50%

---

Reported inhibition at 5 µM by item:
# target_entity: human Nav1.6 (Homo sapiens, UniProt Q9UQD0)
# Construct: host or cells: HEK293
# Sequence (Q9UQD0 whole entry): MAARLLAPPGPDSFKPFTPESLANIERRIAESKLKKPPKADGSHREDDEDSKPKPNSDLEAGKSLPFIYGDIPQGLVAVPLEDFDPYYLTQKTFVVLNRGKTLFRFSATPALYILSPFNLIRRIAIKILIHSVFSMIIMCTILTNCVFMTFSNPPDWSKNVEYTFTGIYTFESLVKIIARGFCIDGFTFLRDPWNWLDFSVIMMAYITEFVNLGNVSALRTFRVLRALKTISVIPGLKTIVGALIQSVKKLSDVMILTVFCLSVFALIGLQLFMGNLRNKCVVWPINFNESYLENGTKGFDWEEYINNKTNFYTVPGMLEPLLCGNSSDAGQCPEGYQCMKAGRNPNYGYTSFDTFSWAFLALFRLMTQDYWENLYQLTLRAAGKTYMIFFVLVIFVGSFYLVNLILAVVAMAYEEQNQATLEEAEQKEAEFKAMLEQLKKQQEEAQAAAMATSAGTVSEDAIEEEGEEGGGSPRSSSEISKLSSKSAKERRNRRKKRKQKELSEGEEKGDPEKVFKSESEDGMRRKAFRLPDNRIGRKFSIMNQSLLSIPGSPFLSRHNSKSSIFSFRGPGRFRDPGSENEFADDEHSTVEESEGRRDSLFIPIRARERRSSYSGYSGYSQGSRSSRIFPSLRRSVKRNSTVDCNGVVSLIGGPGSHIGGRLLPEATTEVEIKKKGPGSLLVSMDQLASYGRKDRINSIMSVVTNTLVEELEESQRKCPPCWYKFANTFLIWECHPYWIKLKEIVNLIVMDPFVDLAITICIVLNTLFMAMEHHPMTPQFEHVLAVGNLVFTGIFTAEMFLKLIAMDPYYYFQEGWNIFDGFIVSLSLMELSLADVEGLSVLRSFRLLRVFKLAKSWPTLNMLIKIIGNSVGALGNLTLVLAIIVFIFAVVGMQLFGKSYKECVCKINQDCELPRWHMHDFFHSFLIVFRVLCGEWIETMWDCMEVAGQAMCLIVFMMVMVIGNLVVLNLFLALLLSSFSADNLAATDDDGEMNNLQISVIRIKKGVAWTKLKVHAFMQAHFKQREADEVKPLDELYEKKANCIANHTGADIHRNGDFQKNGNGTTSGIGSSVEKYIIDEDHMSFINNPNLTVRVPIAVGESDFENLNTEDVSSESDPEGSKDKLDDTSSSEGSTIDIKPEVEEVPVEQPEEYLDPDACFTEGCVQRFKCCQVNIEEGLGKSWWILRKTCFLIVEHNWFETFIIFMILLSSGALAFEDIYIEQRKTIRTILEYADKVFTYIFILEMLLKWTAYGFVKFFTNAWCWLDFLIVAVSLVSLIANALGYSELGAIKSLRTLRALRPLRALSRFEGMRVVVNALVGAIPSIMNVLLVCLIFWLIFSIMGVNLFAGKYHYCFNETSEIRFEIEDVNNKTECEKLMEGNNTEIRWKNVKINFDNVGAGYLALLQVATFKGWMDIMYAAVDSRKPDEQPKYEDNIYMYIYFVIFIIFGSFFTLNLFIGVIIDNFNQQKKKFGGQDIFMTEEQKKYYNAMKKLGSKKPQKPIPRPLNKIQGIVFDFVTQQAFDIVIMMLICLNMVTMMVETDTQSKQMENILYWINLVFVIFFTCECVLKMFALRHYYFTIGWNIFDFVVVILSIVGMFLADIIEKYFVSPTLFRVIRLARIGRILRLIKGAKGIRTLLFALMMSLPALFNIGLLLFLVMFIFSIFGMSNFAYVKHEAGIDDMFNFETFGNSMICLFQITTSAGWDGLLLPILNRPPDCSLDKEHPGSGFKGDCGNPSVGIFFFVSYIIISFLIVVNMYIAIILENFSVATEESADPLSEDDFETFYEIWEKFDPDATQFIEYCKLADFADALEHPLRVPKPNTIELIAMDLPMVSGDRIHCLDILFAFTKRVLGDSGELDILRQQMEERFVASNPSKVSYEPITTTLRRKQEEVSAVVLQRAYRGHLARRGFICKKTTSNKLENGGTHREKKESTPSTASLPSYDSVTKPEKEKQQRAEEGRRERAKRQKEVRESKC
# assay_name: Two pulse assay protocol, Nav1.6
# Format: cell-based
# conditions_used: 5 uM; peak current, pulse 2 (state-dependent); read-out: percent inhibition hNav1.6, Pulse 2 (5 uM)

Known results for compounds:
Tested on human Nav1.6 (Homo sapiens, UniProt Q9UQD0), the item Cc1cc2ncc(-c3ccc(OC(C)(C)C)cc3)n2cc1-c1ccc(OC(C)C)c(F)c1 [Example C79] showed inhibition at 5 µM equal to 50 to 90%

Tested on human Nav1.6 (Homo sapiens, UniProt Q9UQD0), the item CC(C)Oc1ccc(-c2ccc3ncc(-c4ccc(OC(C)C)cc4)n3n2)cc1 [Example D10] showed inhibition at 5 µM equal to > 90%

Tested on human Nav1.6 (Homo sapiens, UniProt Q9UQD0), the item Cc1cc2ncc(-c3ccc(OC(C)(C)C)cc3)n2cc1-c1ccc(OC(C)C)nc1 [Example C78] showed inhibition at 5 µM equal to > 90%

Tested on human Nav1.6 (Homo sapiens, UniProt Q9UQD0), the item CC(C)Oc1ccc(-c2ccc3ncc(-c4cnc(OC(C)C)nc4)n3c2)cc1 [Example C75] showed inhibition at 5 µM equal to 50 to 90%

Tested on human Nav1.6 (Homo sapiens, UniProt Q9UQD0), the item CC(C)Oc1ccc(-c2ccc3ncc(-c4ccc(OC(C)C)nc4)n3c2)cc1 [Example C37] showed inhibition at 5 µM equal to > 90%

Tested on human Nav1.6 (Homo sapiens, UniProt Q9UQD0), the item Cc1cc2ncc(-c3ccc(OC(C)C)nc3)n2cc1-c1ccc(OC(C)C)cc1 [Example C70] showed inhibition at 5 µM equal to < 50%

New cases:
Tested on human Nav1.6 (Homo sapiens, UniProt Q9UQD0), the item CC(C)Oc1ccc(-c2ccc3ncc(-c4ccc(Oc5ccccc5)cc4)n3c2)cc1 [Example C72] showed inhibition at 5 µM equal to > 90%

Tested on human Nav1.6 (Homo sapiens, UniProt Q9UQD0), the item CC(C)(C)Oc1ccc(-c2cnc3ccc(-c4cnc(OCC(F)(F)F)c(F)c4)cn23)cc1 [Example C86] showed inhibition at 5 µM equal to > 90%

---

# target_entity: human Nav1.5 (peak current) (Homo sapiens)
# Construct: host or cells: HEK293
# Sequence (Q14524 whole entry): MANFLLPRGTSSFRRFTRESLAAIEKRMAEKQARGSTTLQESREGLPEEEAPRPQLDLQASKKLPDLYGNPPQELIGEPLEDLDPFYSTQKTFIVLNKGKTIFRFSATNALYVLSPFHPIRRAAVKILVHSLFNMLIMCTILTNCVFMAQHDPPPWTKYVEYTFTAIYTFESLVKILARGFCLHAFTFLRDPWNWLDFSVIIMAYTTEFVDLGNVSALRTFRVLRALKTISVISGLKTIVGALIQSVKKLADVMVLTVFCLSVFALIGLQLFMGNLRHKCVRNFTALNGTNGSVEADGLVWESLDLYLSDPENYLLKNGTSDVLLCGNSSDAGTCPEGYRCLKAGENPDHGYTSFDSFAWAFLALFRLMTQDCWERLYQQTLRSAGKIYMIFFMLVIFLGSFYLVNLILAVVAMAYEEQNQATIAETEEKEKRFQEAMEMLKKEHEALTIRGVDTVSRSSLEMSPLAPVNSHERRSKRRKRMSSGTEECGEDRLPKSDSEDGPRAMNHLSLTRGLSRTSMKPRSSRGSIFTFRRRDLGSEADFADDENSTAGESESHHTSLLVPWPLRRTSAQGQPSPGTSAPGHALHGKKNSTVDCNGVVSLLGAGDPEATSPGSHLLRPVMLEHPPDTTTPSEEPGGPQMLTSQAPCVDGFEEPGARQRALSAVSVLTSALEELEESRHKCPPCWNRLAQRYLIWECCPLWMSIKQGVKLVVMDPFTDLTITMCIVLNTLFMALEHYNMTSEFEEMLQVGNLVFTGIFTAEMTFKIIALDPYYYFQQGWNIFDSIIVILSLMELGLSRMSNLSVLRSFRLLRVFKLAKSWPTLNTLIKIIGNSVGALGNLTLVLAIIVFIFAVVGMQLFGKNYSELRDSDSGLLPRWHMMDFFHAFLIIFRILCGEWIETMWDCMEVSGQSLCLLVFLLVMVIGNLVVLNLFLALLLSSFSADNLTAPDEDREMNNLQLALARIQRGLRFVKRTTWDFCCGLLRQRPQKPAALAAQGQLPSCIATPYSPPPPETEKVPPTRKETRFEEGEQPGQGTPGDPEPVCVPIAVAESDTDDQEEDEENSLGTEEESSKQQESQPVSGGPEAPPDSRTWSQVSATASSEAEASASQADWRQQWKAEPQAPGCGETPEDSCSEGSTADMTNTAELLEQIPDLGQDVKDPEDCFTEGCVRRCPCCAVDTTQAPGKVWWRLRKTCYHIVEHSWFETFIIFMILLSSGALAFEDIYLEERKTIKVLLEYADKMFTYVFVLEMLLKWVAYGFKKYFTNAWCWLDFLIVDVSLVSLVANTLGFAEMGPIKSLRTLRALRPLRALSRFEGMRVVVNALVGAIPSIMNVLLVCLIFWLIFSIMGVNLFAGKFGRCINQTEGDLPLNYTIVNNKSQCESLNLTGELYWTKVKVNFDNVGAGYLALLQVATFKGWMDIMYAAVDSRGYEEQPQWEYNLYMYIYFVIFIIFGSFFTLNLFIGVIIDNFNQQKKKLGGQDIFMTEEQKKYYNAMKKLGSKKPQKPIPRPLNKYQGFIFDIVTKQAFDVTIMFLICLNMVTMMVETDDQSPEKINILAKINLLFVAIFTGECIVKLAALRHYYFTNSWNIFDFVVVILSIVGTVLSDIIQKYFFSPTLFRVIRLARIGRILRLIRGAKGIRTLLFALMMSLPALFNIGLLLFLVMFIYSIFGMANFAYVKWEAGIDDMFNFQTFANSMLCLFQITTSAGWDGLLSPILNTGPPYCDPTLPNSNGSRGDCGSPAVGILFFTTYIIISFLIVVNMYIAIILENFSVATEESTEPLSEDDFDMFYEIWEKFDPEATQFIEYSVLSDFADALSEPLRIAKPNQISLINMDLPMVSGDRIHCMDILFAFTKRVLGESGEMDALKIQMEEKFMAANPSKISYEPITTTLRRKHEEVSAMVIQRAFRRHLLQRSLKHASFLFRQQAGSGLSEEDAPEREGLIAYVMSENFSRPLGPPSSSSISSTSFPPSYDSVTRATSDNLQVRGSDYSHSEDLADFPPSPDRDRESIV
# assay_name: Nav1.5 Peak Current Assay (QPatch HT whole-cell patch clamp)
# Assay type: cell-based
# conditions_used: HEK293 cells stably expressing human Nav1.5, pH 7.3, peak current at step to -15 mV, read-out: percent inhibition hNav1.5 Peak (5 uM)
measure: inhibition at 5 min, 5 µM

Known results for compounds:
// inhibition at 5 min, 5 µM value for "CC(C)Oc1ccc(-c2ccc3ncc(-c4ccc(OC(C)(C)C)cc4)n3c2)cc1" : 50 to 90%

// inhibition at 5 min, 5 µM value for "CC(C)Oc1ccc(-c2ccc3ncc(-c4ccc(OC(C)C)nc4)n3c2)cc1" : < 50%

// inhibition at 5 min, 5 µM value for "Cc1cc2ncc(-c3ccc(OC(C)C)nc3)n2cc1-c1ccc(OC(C)C)cc1" : < 50%

// inhibition at 5 min, 5 µM value for "Cc1cc2ncc(-c3ccc(OC(C)(C)C)cc3)n2cc1-c1ccc(OC(C)C)cc1" : < 50%

Then this compound:
// inhibition at 5 min, 5 µM value for "CC(C)Oc1ccc(-c2cnc3ccc(-c4ccc(OC(C)C)nc4)cn23)cc1" : 50 to 90%

---

# target_entity: human Nav1.7 (Homo sapiens, UniProt Q15858)
# Construct: host or cells: HEK293
# assay_name: Two pulse assay protocol, Nav1.7
# Type: cell-based
# conditions_used: peak current, pulse 2 (state-dependent), read-out: percent inhibition hNav1.7, Pulse 2 (5 uM)
measure: inhibition at 5 µM

Known results for compounds:
// inhibition at 5 µM value for "CC(C)Oc1ccc(-c2ccc3ncc(-c4ccc(C(C)(C)C)nc4)n3c2)cc1" : > 90%

// inhibition at 5 µM value for "CC(C)Oc1ccc(-c2cnc3ccc(-c4ccc(OC(C)C)nc4)cn23)cc1" : > 90%

// inhibition at 5 µM value for "CC(C)Oc1ccc(-c2ccc3ncc(-c4ccc(OC(C)(C)C)nc4)n3c2)cc1" : > 90%

New cases:
// inhibition at 5 µM value for "CS(=O)(=O)NC(=O)c1ccn2c(-c3ccc(OC(F)(F)F)cc3)cnc2c1" : < 50%

// inhibition at 5 µM value for "CC(C)Oc1ccc(-c2ccc3ncc(-c4ccc(OC(C)C)nc4)n3c2)cc1" : > 90%

// inhibition at 5 µM value for "CS(=O)(=O)NC(=O)c1cc2ncc(-c3ccc(OC(F)(F)F)cc3)n2cc1-c1ccc(OC(F)(F)F)cc1" : < 50%

// inhibition at 5 µM value for "CC(C)Oc1ccc(-c2ccc3ncc(-c4ccc(C(C)(C)C)cc4)n3c2)cc1" : > 90%

// inhibition at 5 µM value for "Cc1cc2ncc(-c3ccc(OC(C)(C)C)cc3)n2cc1-c1ccc(OC(C)C)cc1" : 50 to 90%

---

# target_entity: human Nav1.5 (late current) (Homo sapiens)
# Construct: host or cells: HEK293
# assay_name: Nav1.5 Late Current Assay (QPatch HT whole-cell patch clamp, 30 nM ATX-II)
# Type: cell-based
# conditions_used: HEK293 cells stably expressing human Nav1.5, pH 7.3, late current with 30 nM ATX-II, read-out: percent inhibition hNav1.5 Late (5 uM)
Reported inhibition at 5 min, 5 uM by item:

// inhibition at 5 min, 5 uM value for "CC(C)Oc1ccc(-c2ccc3ncc(-c4cccc(OC(C)C)c4)n3c2)cc1" : > 90%

// inhibition at 5 min, 5 uM value for "Cc1cc2ncc(-c3ccc(OC(C)C)nc3)n2cc1-c1ccc(OC(C)C)cc1" : 50 to 90%

// inhibition at 5 min, 5 uM value for "Cc1cc2ncc(-c3ccc(OC(C)(C)C)cc3)n2cc1-c1ccc(OC(C)C)cc1" : 50 to 90%

New cases:
// inhibition at 5 min, 5 uM value for "CC(C)Oc1ccc(-c2ccc3ncc(-c4ccc(OC(F)F)cc4)n3c2)cc1" : < 50%

// inhibition at 5 min, 5 uM value for "COc1cc2ncc(-c3ccc(OC(C)C)cc3)n2cc1-c1ccc(OC(C)C)cc1" : < 50%

// inhibition at 5 min, 5 uM value for "CC(C)Oc1ccc(-c2cn3c(-c4ccc(OC(C)C)cc4)cnc3cc2C#N)cc1" : < 50%

// inhibition at 5 min, 5 uM value for "CC(C)Oc1ccc(-c2ccc3ncc(-c4ccc(OC(C)(C)C)cc4)n3c2)cc1" : > 90%

// inhibition at 5 min, 5 uM value for "CC(C)Oc1ccc(-c2cnc3ccc(-c4ccc(C(N)=O)cc4)cn23)cc1" : < 50%
